Reference for the values: patent US20210347873A1

Molecular target: T1, cynomolgus BLyS (full length, arginine 132 mutated to histidine) on CHO-K1 cells (cynomolgus, UniProt Q9Y275 1-285 (human entry))
T1 construct: also called cyno BLyS; CHO-K1 cynoBLyS
T1 chain: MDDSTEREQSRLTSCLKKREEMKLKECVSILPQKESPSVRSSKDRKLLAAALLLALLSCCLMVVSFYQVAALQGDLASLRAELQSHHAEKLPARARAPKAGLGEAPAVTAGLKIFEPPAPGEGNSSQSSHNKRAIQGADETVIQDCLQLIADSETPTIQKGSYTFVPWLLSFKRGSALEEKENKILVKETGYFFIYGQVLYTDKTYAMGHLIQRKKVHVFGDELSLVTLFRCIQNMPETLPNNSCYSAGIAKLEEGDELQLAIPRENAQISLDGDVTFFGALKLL
Assay: flow cytometry (FACS) on CHO-K1 cynoBLyS cells, Alexa 488 secondary antibody

BINDER	EC50 (read off the curve)
89A2G5E7 (antibody, V domains shown, Mouse hybridoma antibody purified on Protein G) VH: QVQLKESGPGLVAPSQSLSITCTVSGLSLNSHDISWIRQPPGKGLEWLGVIWSGGGTKYNSAFMSRLSISKDNSKSQVFLKMNSLHTDDTAIYYCVRTPSMITYSAMDYWGQGTSVTVSS VL: EIVLTQSPALMAASPGEKVTITCSVSSSISSRNLHWYQQKSQTSPKAWIHATSNLASGVPVRFSGSGSGTSYSLTISSMEAEDAATYYCQQWSSYPLTFGSGTKLEIK	~700 pM
78C11D2D12 (antibody, V domains shown, Mouse hybridoma antibody purified on Protein G) VH: QVQLQQSGAELVRPGTSVKISCKASGYAFTNYWLGWVKQRPGHGLEWIGDIYPGSGNTYYNEKFKGKATLTADKSSSTAYMQLSSLTSEDSAVFFCAAYLYAMDYWGQGTSVTVSS VL: QIVLTQSPAIMSASPGEKVTITCSASSSVSYMHWFQQKPGTSPKLWIYSASNLASGVPARFSGSGSGTSYSLTISRMEAEDAATYYCQQRGSYPFTFGSGTKLEIK	~200 pM
97E7B3F2 (antibody, V domains shown, Mouse hybridoma antibody purified on Protein G) VH: EVQLQQSGPELVKSGASVKISCKASGYTFTDHKMHWVKQSHGKSLEWIGYISPYNGGTGYNQKFKSKVTLTVDISSSTAYMELRSLTSEDSAVYYCARWGFYDVMDSWGQGTSVTVSS VL: DVLLTQTPLSLPVSLGDQASISCRSSQTIVHIIGDTYLEWYLQKPGQSPKLLIYKVSNRFSGVPDRFSGSGAGTDFTLKISRVEAEDLGVYYCFQGSHVPRTFGGGTKLEIK	~100 pM
